System: methicillin-resistant Staphylococus epidermidis (MRSE)
Assay: MIC, NCCLS microdilution broth procedure, MRSE
Type: cell-based
Conditions: MRSE strain # 26
Exercise: for every item that follows, state its recorded minimum inhibitory concentration (MIC).
Give bare numbers, in µg/mL.

Illustrative cases are given below, each with its answer.
COMPOUND | VALUE
CN[C@H](CC(C)C)C(=O)N[C@H]1C(=O)N[C@@H](CC(N)=O)C(=O)N[C@H]2C(=O)N[C@H]3C(=O)N[C@H](C(=O)N[C@H](C(=O)O)c4cc(O)cc(O)c4-c4cc3ccc4O)[C@H](O)c3ccc(c(Cl)c3)Oc3cc2cc(c3O[C@@H]2O[C@H](CO)[C@@H](O)[C@H](O)[C@H]2O[C@H]2C[C@](C)(N)[C@H](O)[C@H](C)O2)Oc2ccc(cc2Cl)[C@H]1O | 2
CC(C)C[C@H](N)C(=O)N[C@H]1C(=O)N[C@@H](CC(N)=O)C(=O)N[C@H]2C(=O)N[C@H]3C(=O)NC(C(=O)N[C@H](C(=O)O)c4cc(O)cc(O)c4-c4cc3ccc4O)[C@H](O)c3ccc(c(Cl)c3)Oc3cc2cc(c3OC2O[C@H](CO)[C@@H](O)[C@H](O)C2O[C@H]2C[C@](C)(NCc3ccc(-c4ccc(Cl)cc4)cc3)[C@H](O)[C@H](C)O2)Oc2ccc(cc2Cl)[C@H]1O (stereo partly drawn) | 0.5

minimum inhibitory concentration (MIC) reported for this compound CC(C)C[C@H](N)C(=O)N[C@H]1C(=O)N[C@@H](CC(N)=O)C(=O)N[C@H]2C(=O)N[C@H]3C(=O)NC(C(=O)N[C@H](C(=O)O)c4cc(O)cc(O)c4-c4cc3ccc4O)[C@H](O)c3ccc(c(Cl)c3)Oc3cc2cc(c3OC2O[C@H](CO)[C@@H](O)[C@H](O)C2O[C@H]2C[C@](C)(NCc3ccc(-c4ccccc4)cc3)[C@H](O)[C@H](C)O2)Oc2ccc(cc2Cl)[C@H]1O (stereo partly drawn) : 4

###

Test system: methicillin-resistant Staphylococus epidermidis (MRSE)
Assay: MIC, NCCLS microdilution broth procedure, MRSE
Type: cell-based
Details: MRSE strain # 25
Experimental: The following table identifies specific species of compounds according to the present invention and information concerning their associated antibacterial activity. […] MIC (minimum inhibitory concentration) was measured according to NCCLS standards using the microdilution broth procedure. […] Based on absorbance of 600 nm, diluted overnight cultures were placed in the wells at a final concentration of 5×10^5 cfu/mL. […] The next day, MIC was determined by visual observation of the plates. […]
REPORTED METRIC: minimum inhibitory concentration (MIC) (µg/mL)
Numbers only, in µg/mL.

// minimum inhibitory concentration (MIC) (methicillin-resistant Staphylococus epidermidis (MRSE)) for CC(C)C[C@H](N)C(=O)N[C@H]1C(=O)N[C@@H](CC(N)=O)C(=O)N[C@H]2C(=O)N[C@H]3C(=O)NC(C(=O)N[C@H](C(=O)O)c4cc(O)cc(O)c4-c4cc3ccc4O)[C@H](O)c3ccc(c(Cl)c3)Oc3cc2cc(c3OC2O[C@H](CO)[C@@H](O)[C@H](O)C2O[C@H]2C[C@](C)(NCc3ccc(-c4ccccc4)cc3)[C@H](O)[C@H](C)O2)Oc2ccc(cc2Cl)[C@H]1O (stereo partly shown) = 4

###

System: methicillin-resistant Staphylococus epidermidis (MRSE)
Assay: MIC, NCCLS microdilution broth procedure, MRSE
Type: cell-based
Details: MRSE strain # 26
Description: The following table identifies specific species of compounds according to the present invention and information concerning their associated antibacterial activity. […] MIC (minimum inhibitory concentration) was measured according to NCCLS standards using the microdilution broth procedure. […] Based on absorbance of 600 nm, diluted overnight cultures were placed in the wells at a final concentration of 5×10^5 cfu/mL. […] The next day, MIC was determined by visual observation of the plates. […]
Exercise: for every item that follows, state its recorded minimum inhibitory concentration (MIC).
Give bare numbers, in µg/mL.

Quick request: minimum inhibitory concentration (MIC) for each listed item, please.
1. CC(C)C[C@@H](N)C(=O)N[C@H]1C(=O)N[C@@H](CC(N)=O)C(=O)N[C@H]2C(=O)N[C@H]3C(=O)N[C@H](C(=O)N[C@H](C(=O)O)c4cc(O)cc(O)c4-c4cc3ccc4O)[C@H](O)c3ccc(c(Cl)c3)Oc3cc2cc(c3O[C@@H]2O[C@H](CO)[C@@H](O)[C@H](O)[C@H]2O[C@H]2C[C@](C)(N)[C@H](O)[C@H](C)O2)Oc2ccc(cc2Cl)[C@H]1O [Nor, norvancoycin, reference compound]
2. CCCCCCCCOc1ccc(CNCC(=O)N[C@@]2(C)C[C@H](OC3C(Oc4c5cc6cc4Oc4ccc(cc4Cl)[C@@H](O)[C@@H](NC(=O)[C@@H](N)CC(C)C)C(=O)N[C@@H](CC(N)=O)C(=O)N[C@H]6C(=O)N[C@H]4C(=O)NC(C(=O)N[C@H](C(=O)O)c6cc(O)cc(O)c6-c6cc4ccc6O)[C@H](O)c4ccc(c(Cl)c4)O5)O[C@H](CO)[C@@H](O)[C@@H]3O)O[C@@H](C)[C@H]2O)cc1 (some centres unmarked) [Compound C]

Return:
1. 2
2. 2
